SYSTEM TESTED: K-RasG12C (1-169) (Homo sapiens, UniProt P01116, G12C)
Construct: Un-tagged recombinant K-Ras G12C (1-169) at 4 μM in Buffer A; hexahistidine (cleaved yes); made in house; host or cells: Escherichia coli BL21 (DE)
Sequence (P01116 1-169 isoform P01116-2 G12C): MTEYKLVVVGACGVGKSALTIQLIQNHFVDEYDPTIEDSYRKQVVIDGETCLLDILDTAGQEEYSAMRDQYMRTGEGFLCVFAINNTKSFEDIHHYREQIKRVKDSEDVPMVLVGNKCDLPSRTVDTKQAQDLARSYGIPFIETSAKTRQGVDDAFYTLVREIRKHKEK
TEST PROTOCOL: Mass spectrometric screen for extent of covalent labeling
Type: binding
CONDITION PARAMETERS: 2 h, 10 micromolar, 2 hrs; read-out: Percent reduction in activity of compound at 10 micromolar relative to control (no compound), 2 hrs
PROPERTY: percent covalent labeling at 10 µM

The molecule C=CS(=O)(=O)NC1CCN(C(=O)CCn2ncc3ccccc32)CC1 showed percent covalent labeling at 10 µM equal to ≤ 5%

Value of percent covalent labeling at 10 µM reported for the molecule C=CS(=O)(=O)NC1CCN(C(=O)COc2c(Cl)cc(Cl)c3cccnc23)CC1 [UP-I-154A] is ≤ 5%

----------
As shown below, each of these molecules has a reported percent covalent labeling at 10 µM value.
SYSTEM TESTED: K-RasG12C (1-169) (Homo sapiens, UniProt P01116, G12C)
Construct: Un-tagged recombinant K-Ras G12C (1-169) at 4 μM in Buffer A; hexahistidine (cleaved yes); made in house; host or cells: Escherichia coli BL21 (DE)
TEST PROTOCOL: Mass spectrometric screen for extent of covalent labeling
Type: binding
CONDITION PARAMETERS: 6 h, 10 micromolar, 6 hrs; read-out: Percent reduction in activity of compound at 10 micromolar relative to control (no compound), 6 hrs

MOLECULE | percent covalent labeling at 10 µM
C=CS(=O)(=O)NC1CCN(C(=O)COc2cc(CCO)c(Cl)cc2Cl)CC1 | ≤ 5%

percent covalent labeling at 10 µM reported for this molecule C=CS(=O)(=O)NC1CCN(C(=O)COc2cc(Cl)c(Cl)cc2O)CC1 : 5 to 20%

Given item C=CS(=O)(=O)NC1CCN(C(=O)CSc2nc(C)cs2)CC1 [UP-I-165D] , the value recorded as its percent covalent labeling at 10 µM is ≤ 5%

Item: C=CS(=O)(=O)NC1CCN(C(=O)COc2cc(C#N)c(Cl)cc2Cl)CC1 | percent covalent labeling at 10 µM: ≤ 5%

----------
SYSTEM TESTED: K-RasG12C (1-169) (Homo sapiens, UniProt P01116, G12C)
Construct: Un-tagged recombinant K-Ras G12C (1-169) at 4 μM in Buffer A; hexahistidine (cleaved yes); made in house; host or cells: Escherichia coli BL21 (DE)
TEST PROTOCOL: Mass spectrometric screen for extent of covalent labeling
Type: binding
CONDITION PARAMETERS: 24 h, 10 micromolar, 24 hrs; read-out: Percent reduction in activity of compound at 10 micromolar relative to control (no compound), 24 hrs
Listed compounds paired with reported percent covalent labeling at 10 µM

Study these solved cases before continuing.
COMPOUND | EXPERIMENTAL VALUE
C=CS(=O)(=O)N1CCC2(CC1)CN(C(=O)COc1ccc(Cl)cc1Cl)C2 [JO-02-112A] | 5 to 20%
C=CS(=O)(=O)N1CCC(NC(=O)COc2ccc(Cl)cc2Cl)CC1 [JO-02-55] | 5 to 20%
C=CS(=O)(=O)NC1CCN(C(=O)CNc2cc(I)c(Cl)cc2OC)CC1 [Ras-079] | > 60%
C=CS(=O)(=O)NC1CCN(C(=O)COc2cc(-c3cn[nH]c3)c(Cl)cc2Cl)CC1 [Ras-056] | ≤ 5%

Measured percent covalent labeling at 10 µM, C=CS(=O)(=O)NC1CCN(C(=O)CNc2cc(Cl)c(Cl)cc2I)CC1 [JO-02-144] : > 60%

GET /value?item= CN(C)C/C=C/C(=O)NC1CCN(C(=O)COc2ccc(Cl)cc2Cl)CC1 [Ras-007] &field=percent covalent labeling at 10 µM returns ≤ 5%

For reference, reported percent covalent labeling at 10 µM for C=CS(=O)(=O)NC1CCN(C(=O)CNc2cc(C(F)(F)F)c(Cl)cc2OC)CC1 [Ras-065] stands at 20 to 40%

get_value(item= C=CS(=O)(=O)NC1CCN(C(=O)COc2ccc3nncn3n2)CC1 [UP-I-165C] , readout=percent covalent labeling at 10 µM) returns ≤ 5%

In plain terms, C=CS(=O)(=O)N1CCN(C(=O)COc2ccc(Cl)cc2Cl)CC1 [JO-02-112D] has a documented percent covalent labeling at 10 µM of 20 to 40%

get_value(item= C=CS(=O)(=O)NC1CCN(C(=O)CSc2ccc(Cl)c3ccccc23)CC1 [JO-02-31C] , readout=percent covalent labeling at 10 µM) returns 20 to 40%

percent covalent labeling at 10 µM in this record for C=CS(=O)(=O)NC1CCN(C(=O)CNc2cc(OC)c(Cl)cc2I)CC1 [Ras-077] : > 60%

Reference source for all entries: patent US11008334B2
